Below, each entry is listed alongside its reported pEC50.
# system-name: T1, human CEACAM5 expressed on the surface of tumor cells (human, UniProt P06731 35-685)
# T1 construct: Endogenous CEACAM5 of human tumor cells; also called hCEACAM5 on MKN45 cells; CEACAM5 on CR-IGR-034P primary colon tumor cells
# T1 sequence: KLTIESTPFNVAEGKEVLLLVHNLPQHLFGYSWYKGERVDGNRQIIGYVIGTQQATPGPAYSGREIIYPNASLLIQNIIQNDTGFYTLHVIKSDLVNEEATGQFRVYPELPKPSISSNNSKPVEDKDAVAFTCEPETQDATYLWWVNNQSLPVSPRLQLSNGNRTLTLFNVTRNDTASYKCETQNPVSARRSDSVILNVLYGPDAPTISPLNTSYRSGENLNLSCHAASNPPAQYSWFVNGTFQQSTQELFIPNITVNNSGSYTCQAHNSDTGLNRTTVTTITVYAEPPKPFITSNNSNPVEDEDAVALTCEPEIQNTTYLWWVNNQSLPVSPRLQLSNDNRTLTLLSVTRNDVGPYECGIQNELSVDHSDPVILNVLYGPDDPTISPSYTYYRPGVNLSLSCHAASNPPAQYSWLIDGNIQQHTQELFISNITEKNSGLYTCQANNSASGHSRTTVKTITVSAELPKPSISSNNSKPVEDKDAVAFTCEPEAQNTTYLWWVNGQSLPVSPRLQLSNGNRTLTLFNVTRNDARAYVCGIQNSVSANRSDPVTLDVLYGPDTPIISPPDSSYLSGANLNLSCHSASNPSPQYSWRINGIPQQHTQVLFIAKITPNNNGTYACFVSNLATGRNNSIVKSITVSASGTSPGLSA
# assay-protocol: flow cytometry on MKN45 cells
# Description: The apparent affinity of anti-CEACAM5 antibodies to hCEACAM5 expressed on the surface of human MKN45 (DSMZ, ACC 409) tumoral cells were determined by Guava® easyCyte™ 8HT Flow Cytometry System. […] The antibody binding was evaluated after centrifugation and resuspension of cells by adding 200 μl/well PBS 1% BSA and read using Guava® easyCyte™ 8HT Flow Cytometry System. […]
Keep in mind that pEC50 stands for -log10 of concentration in molar terms.

Here are 3 binders together with their reported answers.
antibody MAb1 (antibody, IgG1, V domains shown) VH: EVMLVESGGGLVKPGGSLKLSCAASGFTFSSYAMSWVRQTPEKRLEWVATISSGGSYIYYLDSVKGRFTISRDNAKNTLYLQMSSLRSEDTAMYYCARPAYYGNPAMDYWGQGTSVTVSS VL: DILMTQSQKFMSTSVGDRVSVTCKASQNVGTNVAWYQQKPGQSPKPLIYSASYRYSGVPDRFTGSGSGTDFTLTISNVQSEDLAEYFCQQYNSYPLYTFGGGTKLEIK	7.80
antibody MAb5 (antibody, IgG1, V domains shown, Murine monoclonal from hybridoma, IgG1, kappa) VH: ELQLVESGGVLVKPGGSLKLSCAASGFAFSSYDMSWVRQTPEKRLEWVTYINSGGGITYYPDTVKGRFTISRDNARNTLYLQMSSLKSEDTAIYYCTAHYFGSSGPFAYWGQGTLVTVSA VL: DIQMTQSPASLSASVGETVTITCRASENIYSYLAWYQQKQGKSPQLLVYNAKTLTEGVPSRFSGSGSGTQFSLKINSLQPEDFGSYYCQHHYGTPFTFGSGTKLEIK	9.14
antibody MAb3 (antibody, IgG1, V domains shown, Murine monoclonal from hybridoma, IgG1, kappa) VH: EVKLVESGGGLVKPGGSLTLPCAASGFTFSRYAMSWVRQTPEKRLEWVASISSGGDTYYPDSVKGRFTVSRDNARNILFLQMSSLRSEDTGMYYCARVNYYDSSFLDWWGQGTTLTVSS VL: DIVMTQSQRFMSTLEGDRVSVTCKASQNVGTNVAWYQQKPGQSPKALIYSASYRYSGVPDRFTGSGSGTDFTLTISNVQSEDLAEYFCQQYNNYPLYTFGGGTKLEIK	8.21

--- query ---
Which pEC50 value is on record for antibody MAb4 (antibody, IgG1, V domains shown, Murine monoclonal from hybridoma, IgG1, kappa) VH: EVQLVESGGGLVKPGGSLKLSCAASGFTFSSYDMSWVRQTPEKRLEWVAFISSYGGRTYYADTVKGRFTISRDNAKNTLYLQMSSLKSEDTAMFYCAAHYFGTSGPFAYWGQGTLVTVSA VL: DIQMTQSPASLSASVGETVTITCRASENIYSYFAWYQQKQGKSPQLLVYNAKILAEGVPSRFSGSGSGTQFSLKINSLQPEDFGTYYCQHHYGIPFTFGSGTKLELK ?
8.31
